# System: Staphylococcus epidermidis
# assay.explanation: Antimicrobial activity against Staphylococcus epidermidis ATCC 12228 incubated for 18 hrs by serial microdilution method
# Type: functional
# condition.parameters: ATCC 12228, 18 h
Assign log10 of MIC to each entry below.
Use the decimal logarithm of MIC (µg/mL).

Notebook: `CO[C@H]1/C=C/O[C@@]2(C)Oc3c(C)c(O)c4c(O)c(c(/C=N/N5CCCCC5)c(O)c4c3C2=O)NC(=O)/C(C)=C\C=C\[C@H](C)[C@H](O)[C@@H](C)[C@@H](O)[C@@H](C)[C@H](OC(C)=O)[C@@H]1C` , log10 of MIC read as -1.81

Notebook: `CO[C@H]1/C=C/O[C@@]2(C)Oc3c(C)c(O)c4c(O)c(c(CN5CCN(C)CC5)c(O)c4c3C2=O)NC(=O)/C(C)=C\C=C\[C@H](C)[C@H](O)[C@@H](C)[C@@H](O)[C@@H](C)[C@H](OC(C)=O)[C@@H]1C` , log10 of MIC read as -0.60

Notebook: `CO[C@H]1/C=C/O[C@@]2(C)Oc3c(C)c(O)c4c(O)c(c(CNC5CCN(C(=O)OC(C)(C)C)CC5)c(O)c4c3C2=O)NC(=O)/C(C)=C\C=C\[C@H](C)[C@H](O)[C@@H](C)[C@@H](O)[C@@H](C)[C@H](OC(C)=O)[C@@H]1C` , log10 of MIC read as -0.60

Notebook: `CO[C@H]1/C=C/O[C@@]2(C)Oc3c(C)c(O)c4c(O)c(c(/C=N/NCc5ccccc5)c(O)c4c3C2=O)NC(=O)/C(C)=C\C=C\[C@H](C)[C@H](O)[C@@H](C)[C@@H](O)[C@@H](C)[C@H](OC(C)=O)[C@@H]1C` , log10 of MIC read as -0.60

Notebook: CO[C@H]1/C=C/O[C@@]2(C)Oc3c(C)c(O)c4c(O)c(c(/C=N/N5CCN(C)CC5)c(O)c4c3C2=O)NC(=O)/C(C)=C\C=C\[C@H](C)[C@H](O)[C@@H](C)[C@@H](O)[C@@H](C)[C@H](OC(C)=O)[C@@H]1C [RIFAMPIN] , log10 of MIC read as -1.81

Notebook: `CO[C@H]1/C=C/O[C@@]2(C)Oc3c(C)c(O)c4c(O)c(c(CN5CCC(N(C)C)CC5)c(O)c4c3C2=O)NC(=O)/C(C)=C\C=C\[C@H](C)[C@H](O)[C@@H](C)[C@@H](O)[C@@H](C)[C@H](OC(C)=O)[C@@H]1C` , log10 of MIC read as -0.90

Notebook: CO[C@H]1/C=C/O[C@@]2(C)Oc3c(C)c(O)c4c(O)c(c5c(nc6cc(C)ccn65)c4c3C2=O)NC(=O)/C(C)=C\C=C\[C@H](C)[C@H](O)[C@@H](C)[C@@H](O)[C@@H](C)[C@H](OC(C)=O)[C@@H]1C [RIFAXIMIN] , log10 of MIC read as -1.51

Notebook: CO[C@H]1/C=C/O[C@@]2(C)Oc3c(C)c(O)c4c(O)c(c(CNC5CCCNC5=O)c(O)c4c3C2=O)NC(=O)/C(C)=C\C=C\[C@H](C)[C@H](O)[C@@H](C)[C@@H](O)[C@@H](C)[C@H](OC(C)=O)[C@@H]1C (some centres not stated) , log10 of MIC read as -0.60

Notebook: `CO[C@H]1/C=C/O[C@@]2(C)Oc3c(C)c(O)c4c(O)c(c(C=O)c(O)c4c3C2=O)NC(=O)/C(C)=C\C=C\[C@H](C)[C@H](O)[C@@H](C)[C@@H](O)[C@@H](C)[C@H](OC(C)=O)[C@@H]1C` , log10 of MIC read as 0.30

Notebook: `CO[C@H]1/C=C/O[C@@]2(C)Oc3c(C)c(O)c4c(O)c(c(CN5CCN(c6ncccc6C(F)(F)F)CC5)c(O)c4c3C2=O)NC(=O)/C(C)=C\C=C\[C@H](C)[C@H](O)[C@@H](C)[C@@H](O)[C@@H](C)[C@H](OC(C)=O)[C@@H]1C` , log10 of MIC read as -0.30

Notebook: `CO[C@H]1/C=C/O[C@@]2(C)Oc3c(C)c(O)c4c(O)c(c(/C=N/Nc5ccnc6cc(Cl)ccc56)c(O)c4c3C2=O)NC(=O)/C(C)=C\C=C\[C@H](C)[C@H](O)[C@@H](C)[C@@H](O)[C@@H](C)[C@H](OC(C)=O)[C@@H]1C` , log10 of MIC read as -0.90

Notebook: `CO[C@H]1/C=C/O[C@@]2(C)Oc3c(C)c(O)c4c(O)c(c(CN5CCN(C)C6(CCN(C)CC6)C5)c(O)c4c3C2=O)NC(=O)/C(C)=C\C=C\[C@H](C)[C@H](O)[C@@H](C)[C@@H](O)[C@@H](C)[C@H](OC(C)=O)[C@@H]1C` , log10 of MIC read as -1.20

Notebook: `CO[C@H]1/C=C/O[C@@]2(C)Oc3c(C)c(O)c4c(O)c(c(CN5CCC6(CC5)NCCc5ccccc56)c(O)c4c3C2=O)NC(=O)/C(C)=C\C=C\[C@H](C)[C@H](O)[C@@H](C)[C@@H](O)[C@@H](C)[C@H](OC(C)=O)[C@@H]1C` , log10 of MIC read as 0.30

Notebook: `CO[C@H]1/C=C/O[C@@]2(C)Oc3c(C)c(O)c4c(O)c(c(/C=N/NC(C)(C)C)c(O)c4c3C2=O)NC(=O)/C(C)=C\C=C\[C@H](C)[C@H](O)[C@@H](C)[C@@H](O)[C@@H](C)[C@H](OC(C)=O)[C@@H]1C` , log10 of MIC read as 0.00

Notebook: `CO[C@H]1/C=C/O[C@@]2(C)Oc3c(C)c(O)c4c(O)c(c(/C=N/Nc5ccccc5)c(O)c4c3C2=O)NC(=O)/C(C)=C\C=C\[C@H](C)[C@H](O)[C@@H](C)[C@@H](O)[C@@H](C)[C@H](OC(C)=O)[C@@H]1C` , log10 of MIC read as -0.30

Notebook: `CO[C@H]1/C=C/O[C@@]2(C)Oc3c(C)c(O)c4c(O)c(c(CNCCN5CCCC5=O)c(O)c4c3C2=O)NC(=O)/C(C)=C\C=C\[C@H](C)[C@H](O)[C@@H](C)[C@@H](O)[C@@H](C)[C@H](OC(C)=O)[C@@H]1C` , log10 of MIC read as 0.30

Notebook: `CO[C@H]1/C=C/O[C@@]2(C)Oc3c(C)c(O)c4c(O)c(c(CN5CCN(Cc6c(C)cc(C)cc6C)CC5)c(O)c4c3C2=O)NC(=O)/C(C)=C\C=C\[C@H](C)[C@H](O)[C@@H](C)[C@@H](O)[C@@H](C)[C@H](OC(C)=O)[C@@H]1C` , log10 of MIC read as -0.30
